Source of measurements: patent US20080292736A1

Conditions: rat, in vivo
Answer Criterion not met if % Enhancement in bioavailability, Carum carvi + piperine, Extr. (Cc) is under 40%, and Criterion met if it is 40% or more.

line notation	assigned class
NCCCC[C@H](N)C(=O)O	Criterion not met
C[C@@H]1O[C@@H](OC[C@H]2O[C@@H](Oc3c(-c4ccc(O)c(O)c4)oc4cc(O)cc(O)c4c3=O)[C@H](O)[C@@H](O)[C@@H]2O)[C@H](O)[C@H](O)[C@H]1O	Criterion not met
CC(C)[C@H](N)C(=O)O	Criterion not met
COc1cc(/C=C/C(=O)CC(=O)/C=C/c2ccc(O)c(OC)c2)ccc1O	Criterion met
CC[C@H](C)[C@H](N)C(=O)O	Criterion not met
CC(C)C[C@H](N)C(=O)O	Criterion not met

----------
Measured % Enhancement in bioavailability, Carum carvi + Zingiber officinale accompanies every entry in the list below.
Settings: rat, in vivo
quantity kind: % Enhancement in bioavailability, Carum carvi + Zingiber officinale (%)

molecule	numeric result
CC[C@H]1OC(=O)[C@H](C)[C@@H](O[C@H]2C[C@@](C)(OC)[C@@H](O)[C@H](C)O2)[C@H](C)[C@@H](O[C@@H]2O[C@H](C)C[C@H](N(C)C)[C@H]2O)[C@](C)(O)C[C@@H](C)CN(C)[C@H](C)[C@@H](O)[C@]1(C)O [Azithromycin]	86
CC[C@H]1OC(=O)[C@H](C)[C@@H](O[C@H]2C[C@@](C)(OC)[C@@H](O)[C@H](C)O2)[C@H](C)[C@@H](O[C@@H]2O[C@H](C)C[C@H](N(C)C)[C@H]2O)[C@](C)(O)C[C@@H](C)C(=O)[C@H](C)[C@@H](O)[C@]1(C)O [Erythromycin]	105
C=CC[C@@H]1/C=C(\C)C[C@H](C)C[C@H](OC)[C@H]2O[C@@](O)(C(=O)C(=O)N3CCCC[C@H]3C(=O)O[C@H](/C(C)=C/[C@@H]3CC[C@@H](O)[C@H](OC)C3)[C@H](C)[C@@H](O)CC1=O)[C@H](C)C[C@@H]2OC [Tacrolimus]	114
CCOC(=O)C1=C(COCCN)NC(C)=C(C(=O)OC)C1c1ccccc1Cl (centres unmarked) [Amlodipine]	65

----------
Property: % Enhancement in bioavailability, Carum carvi + Piperine; scope: individual compounds
Settings: rat, in vivo
quantity kind: % Enhancement in bioavailability, Carum carvi + Piperine (%)

line notation	numeric result
Nc1nc2c(ncn2COCCO)c(=O)[nH]1	100
C=CC1=C(C(=O)O)N2C(=O)[C@@H](NC(=O)/C(=N\OCC(=O)O)c3csc(N)n3)[C@H]2SC1	79
CC[C@H]1OC(=O)[C@H](C)[C@@H](O[C@H]2C[C@@](C)(OC)[C@@H](O)[C@H](C)O2)[C@H](C)[C@@H](O[C@@H]2O[C@H](C)C[C@H](N(C)C)[C@H]2O)[C@](C)(O)C[C@@H](C)CN(C)[C@H](C)[C@@H](O)[C@]1(C)O	90

----------
Experiment: Enhancement of bioavailability of drugs given to rats with bioenhancers (plasma drug level by HPLC)
Details: nutraceutical with Carum carvi extract and piperine
Entries and their measured % Enhancement in bioavailability, Carum carvi + piperine, Extr. (Cc) follow.
quantity kind: % Enhancement in bioavailability, Carum carvi + piperine, Extr. (Cc) (%)

In [3]: df
Out[3]:
                                   compound  numeric_result
0           CSCC[C@H](N)C(=O)O [Methionine]              25
1  Cc1ncc(C[n+]2csc(CCO)c2C)c(N)n1 [Vit B 1]              21
2  CC1=C(/C=C/C(C)=C/C=C/C(C)=C/C=C/C=C(C)/C=C/C=C(C)/C=C/C2=C(C)CCCC2(C)C)C(C)(C)CCC1 [B-carotene]              45
